Kindly supply the reported log10(GI50) values for the records listed here.
Test system: SF268 (CNS)
Assay: In vitro cytotoxic activity (GI50), method (a), propidium iodide
Format: cell-based
Conditions: Homo sapiens, SF-268; method (a), 96 hours; read-out: SF-268 (GI50 μM)
All values: log10 GI50 [µM].

May I ask what log10(GI50) has been recorded for COc1cccc2c1Nc1c(O)cc(O)cc1N(C/C=C(\C)CC/C=C(\C)CCC=C(C)C)C2=O ?
0.70

Please give the measured log10(GI50) for this compound: CC(C)CCCC(C)CCCC(C)CCN1C(=O)c2cccc(O)c2Nc2c(O)cc(O)cc21 (stereo not shown)
-0.14

log10(GI50) lookup needed for COc1cc(O)cc2c1Nc1c(O)cccc1C(=O)N2C/C=C(\C)CC/C=C(\C)CCC=C(C)C , thanks.
1.13

Entry CC(C)=CCC/C(C)=C/CC/C(C)=C/CN1C(=O)c2cccc(O)c2N(Cc2ccccc2)c2c(O)cc(O)cc21 : reported log10(GI50) = ?
0.76

Entry CC(C)=CCC/C(C)=C/CC/C(C)=C/CN1C(=O)c2cccc(O)c2Nc2c(O)cc(O)cc21 : reported log10(GI50) = ?
0.29

Quick one: log10(GI50) of COc1cc(OC)c2c(c1)N(C/C=C(\C)CC/C=C(\C)CCC=C(C)C)C(=O)c1cccc(O)c1N2 ?
1.28

May I ask what log10(GI50) has been recorded for COc1cccc2c1Nc1c(OC)cc(O)cc1N(CC=C(C)CCC=C(C)CCC=C(C)C)C2=O ?
1.27
